Test: Tanguay_ZF_120hpf_ActivityScore_legacy: (Legacy) Oregon State University Tanguay Lab 120 Hour Post-fertilization zebrafish Assay Score for Activity (AID 2283742)
Calls of active or inactive are those of the source. The calls were made as follows: active = hit-call score of the fitted dose curve at least 0.9, where 1 is the maximum; inconclusive = response in the unintended direction; inactive = score below 0.9.
Entry note: the call must match one of active, inactive

Worked examples, 5 compounds total:
>>> class_name("C[C@]12C=CC3=C4CCC(=O)C=C4CC[C@H]3[C@@H]1CC[C@@H]2O")
"active"
>>> class_name("Nc1cc(Cl)cc(C(=O)O)c1Cl")
"inactive"
>>> class_name("O=Cc1ccco1")
"inactive"
>>> class_name("c1ccc(N=Nc2ccccc2)cc1")
"inactive"
>>> class_name("Cc1ccc([N+](=O)[O-])cc1")
"inactive"

Problem: Outcome logged for CCOC(=O)[C@]1(c2ccccc2)Oc2ccccc2[C@@H]1N in this assay:
Solution: inactive

Problem: Same question, Clc1ccc(Cl)c(Cl)c1 this time
Solution: inactive

Problem: Same question, OCCOCCO this time
Solution: inactive

Problem: Same question, c1ccc(C2CO2)cc1 (stereo not drawn) this time
Solution: inactive

Problem: Same question, O=C(Oc1ccc(Br)cc1)N1CCN2CCC1CC2 this time
Solution: inactive

Problem: Same question, CCCCOC(=O)c1ccccc1C(=O)OCc1ccccc1 this time
Solution: inactive
